Source of measurements: patent US20230312550A1

- MEASUREMENT NOTES: Metabolic stability in human liver microsomes (HLM)
- DETAILS: human, HLM CLint, n = 1 or average of n = 2-3
RESULT TYPE: microsomal CLint (µL/min/mg)

// worked examples, microsomal CLint included
Cn1nccc1-c1ccc2nccc(C(=O)NCC(=O)N3CSC[C@H]3C#N)c2c1 ... 12
C[C@@H]1COC[C@@H](C)N1c1ccc2nccc(C(=O)NCC(=O)N3CSC[C@H]3C#N)c2c1 ... 180
COC[C@H]1[C@H](C)OCCN1c1ccc2nccc(C(=O)NCC(=O)N3CSC[C@H]3C#N)c2c1 ... 71
N#C[C@@H]1CSCN1C(=O)CNC(=O)c1ccnc2ccc(N3CCC(F)(c4ccccc4)CC3)cc12 ... 57
CC1(CS(C)(=O)=O)CN(c2ccc3nccc(C(=O)NCC(=O)N4CSC[C@H]4C#N)c3c2)C1 ... 3.1

P: CC1(C)Cc2c(-c3ccc4nccc(C(=O)NCC(=O)N5CSC[C@H]5C#N)c4c3)cnn2C1
Q: C[C@@H]1CCN(c2ccc3nccc(C(=O)NCC(=O)N4CSC[C@H]4C#N)c3c2)C1
Q) // max by microsomal CLint over [ P , Q ] The response must carry the label of the picked entry.
A) Q

a: N#C[C@@H]1CSCN1C(=O)CNC(=O)c1ccnc2ccc(N3CC(F)(C(F)(F)F)C3)cc12
b: CC1(C(F)F)CN(c2ccc3nccc(C(=O)NCC(=O)N4CSC[C@H]4C#N)c3c2)C1
c: C[C@@H]1CCCN(c2ccc3nccc(C(=O)NCC(=O)N4CSC[C@H]4C#N)c3c2)C1=O (single isomer, unassigned)
d: N#C[C@@H]1CSCN1C(=O)CNC(=O)c1ccnc2ccc(N3CC4CCCC4C3)cc12 (stereo partly drawn)
e: CC1(C2CC2)CN(c2ccc3nccc(C(=O)NCC(=O)N4CSC[C@H]4C#N)c3c2)C1
Q) Output the entries ranked by microsomal CLint from maximum down to minimum. When ranking, write the labels in the order the request describes.
A) e, d, a, b, c

a: N#C[C@@H]1CSCN1C(=O)CNC(=O)c1ccnc2ccc(N3CC4CC4C3)cc12 (stereo partly drawn)
b: N#C[C@@H]1CSCN1C(=O)CNC(=O)c1ccnc2ccc(N3CCC(C(F)(F)F)CC3)cc12
c: CC1(CF)CCN(c2ccc3nccc(C(=O)NCC(=O)N4CSC[C@H]4C#N)c3c2)CC1
d: CO[C@H]1CCCN(c2ccc3nccc(C(=O)NCC(=O)N4CSC[C@H]4C#N)c3c2)C1 (mixture of isomers)
Q) Output the entries ranked by microsomal CLint from maximum down to minimum. When ranking, write the labels in the order the request describes.
A) b, c, a, d

a: N#C[C@@H]1CSCN1C(=O)CNC(=O)c1ccnc2ccc(N3CCCC(F)(F)C3)cc12
b: CS(=O)(=O)C[C@@H]1CN(c2ccc3nccc(C(=O)NCC(=O)N4CSC[C@H]4C#N)c3c2)CCO1
c: CC(C)n1nccc1-c1ccc2nccc(C(=O)NCC(=O)N3CSC[C@H]3C#N)c2c1
Q) Would you mind ranking these compounds by ascending microsomal CLint? When ranking, write the labels in the order the request describes.
A) b, c, a
